# Tested on: Bacillus subtilis
# Protocol summary: Antibacterial activity against Bacillus subtilis by broth dilution assay
# Format: functional
Where a SMILES comes first, the peptide text is derived from it. The star is where a group is joined. Tridecanoyl(3R-OH,11-Me) = CCC(C)CCCCCCC[C@@H](O)CC(=O)*
// MIC lookup, one value per entry
Give just the number in µg/mL; leave the unit off.

Worked cases, MIC given:
Input line: Please report the measured MIC for CCC(C)CCCCCCC[C@@H](O)CC(=O)N[C@@H](CCC(=O)OC)C(=O)N[C@@H](CC(C)C)C(=O)N[C@@H](CC(C)C)C(=O)N[C@@H](CC(C)C)C(=O)O (stereo partly drawn) ({Tridecanoyl(3R-OH,11-Me)}-E(OMe)LLL-OH)
Output line: 0.01

Input line: Please report the measured MIC for "C[C@@H]1CCC[C@@H](O)/C=C/[C@@H]2O[C@@H]2C[C@@H](O)C/C=C\C=C\[C@@H](O)C/C=C/C=C\C(=O)O1"
Output line: 16

Input line: Please report the measured MIC for "C[C@@H]1CCC/C=C/C=C/[C@H](O)C[C@@H](O)[C@H](O)/C=C\C=C\[C@@H](O)C/C=C/C=C\C(=O)O1"
Output line: 100

Lab note: next molecule to report on.
Input line: Please report the measured MIC for "C[C@@H]1CCC/C=C/C=C/[C@H](O)C[C@@H](O)[C@H](O)/C=C\C=C\[C@H](O)C/C=C/C=C\C(=O)O1"
Output line: 0.1

----------
# Tested on: Pseudomonas aeruginosa
# Protocol summary: Antibacterial activity against Pseudomonas aeruginosa by broth dilution assay
# Type: functional
Where a SMILES comes first, the peptide text is derived from it. [ ]: non-standard residue; d: D form. The star is where a group is joined. Tridecanoyl(3R-OH,11-Me) = CCC(C)CCCCCCC[C@@H](O)CC(=O)*; X1 = CCC(C)CC(C)CCCC[C@@H](O)CC(=O)*
Endpoint label: MIC (µg/mL)
Give just the number in µg/mL; leave the unit off.

Worked cases, MIC given:
Input line: Please report the measured MIC for CCC(C)CCCCCCC[C@@H](O)CC(=O)N[C@@H](CCC(=O)O)C(=O)N[C@@H](CC(C)C)C(=O)N[C@@H](CC(C)C)C(=O)N[C@@H](C(=O)N[C@@H](CC(=O)O)C(=O)N[C@@H](CC(C)C)C(=O)N[C@@H](CC(C)C)C(=O)O)C(C)C (stereo partly drawn) ({Tridecanoyl(3R-OH,11-Me)}-ELL[dV]DLL-OH)
Output line: 16

Input line: Please report the measured MIC for "C[C@@H]1CCC/C=C/C=C/[C@H](O)C[C@@H](O)C[C@@H]2O[C@@H]2/C=C/[C@@H](O)C/C=C/C=C\C(=O)O1"
Output line: 0.01

Lab note: next molecule to report on.
Input line: Please report the measured MIC for CCC(C)CC(C)CCCC[C@@H](O)CC(=O)N[C@@H](CCC(=O)O)C(=O)N[C@@H](CC(C)C)C(=O)N[C@@H](CC(C)C)C(=O)N[C@@H](CC(C)C)C(=O)O (stereo partly drawn) (X1-ELLL-OH)
Output line: 0.01

----------
# Tested on: Bacillus subtilis
# Protocol summary: Antibacterial activity against Bacillus subtilis by broth dilution assay
# Type: functional
Where a SMILES comes first, the peptide text is derived from it. [ ]: non-standard residue; d: D form. The star is where a group is joined. X2 = CCC(C)CC(C)CCCCC[C@@H](O)CC(=O)*; X1 = CCC(C)CC(C)CCCC[C@@H](O)CC(=O)*
Threshold check on MIC: strictly below 0.06 µg/mL is satisfied; on or above 0.06 µg/mL is not satisfied.

Input line: For CCC(C)CC(C)CCCC[C@@H](O)CC(=O)N[C@@H](CCC(=O)O)C(=O)N[C@@H](CC(C)C)C(=O)N[C@@H](CC(C)C)C(=O)N[C@@H](CC(C)C)C(=O)O (stereo partly specified) (X1-ELLL-OH) , is the recorded MIC below the cut-off of 0.06 µg/mL?
Output line: satisfied

***
Input line: For CCC(C)CC(C)CCCCC[C@@H](O)CC(=O)N[C@@H](CCC(=O)O)C(=O)N[C@@H](CC(C)C)C(=O)N[C@@H](CC(C)C)C(=O)N[C@@H](C(=O)N[C@@H](CC(=O)O)C(=O)N[C@@H](CC(C)C)C(=O)N[C@@H](CC(C)C)C(=O)O)C(C)C (stereo partly specified) (X2-ELL[dV]DLL-OH) , is the recorded MIC below the cut-off of 0.06 µg/mL?
Output line: not satisfied

Input line: For "COC(=O)C[C@H](O)C[C@@H](O)C[C@H](O)/C=C/C=C/CCC[C@@H](C)O" , is the recorded MIC below the cut-off of 0.06 µg/mL?
Output line: not satisfied

Input line: For CCC(C)CCCCCCC[C@@H](O)CC(=O)N[C@@H](CCC(=O)O)C(=O)N[C@@H](CC(C)C)C(=O)O (stereo partly specified) , is the recorded MIC below the cut-off of 0.06 µg/mL?
Output line: satisfied

Input line: For "C[C@@H](O)CCC/C=C/C=C/[C@H](O)C[C@@H](O)C/C=C\C=C\[C@@H](O)C/C=C/C=C\C(=O)O" , is the recorded MIC below the cut-off of 0.06 µg/mL?
Output line: not satisfied
